Target: SpAbp1-D1
Test: SPOT peptide array binding signal intensity (averaged, normalized) (arbitrary units (background-subtracted, floor 0; scale differs between SH3 domains)); higher = stronger binding of the SH3 domain to the peptide
experimental-readout: SPOT peptide array binding signal intensity

[
  {
    "binder": "NSMRPPLLIPAATTK",
    "op": "=",
    "val": 27
  },
  {
    "binder": "FYHRPAPKPPVTKKV",
    "op": "=",
    "val": 50.5
  },
  {
    "binder": "YLTRPLPSTPNEDSR",
    "op": "≤",
    "val": 0
  },
  {
    "binder": "PKMLPIPSKPTLFDL",
    "op": "=",
    "val": 286
  },
  {
    "binder": "SLSRRRFSLPSMPNV",
    "op": "=",
    "val": 416
  },
  {
    "binder": "MFLISPPASPPPEFD",
    "op": "≤",
    "val": 0
  },
  {
    "binder": "DLFKPLPEPPTELGR",
    "op": "≤",
    "val": 0
  },
  {
    "binder": "IFLRISINFPLNYPN",
    "op": "=",
    "val": 211
  },
  {
    "binder": "DFTLPPPPPPPGLDE",
    "op": "≤",
    "val": 0
  },
  {
    "binder": "VPKEPAPAPPPEPDM",
    "op": "≤",
    "val": 0
  },
  {
    "binder": "TIRRRAPLSLLESHT",
    "op": "=",
    "val": 508
  },
  {
    "binder": "FVLRYYILIPHEQWD",
    "op": "=",
    "val": 59.5
  },
  {
    "binder": "RLSFFFPLDPAYIRN",
    "op": "=",
    "val": 1
  },
  {
    "binder": "IRMPSNPALPKKLLN",
    "op": "=",
    "val": 268
  },
  {
    "binder": "NRLRKRLNLPSEISI",
    "op": "=",
    "val": 293
  },
  {
    "binder": "FTLPPPPPPPGLDEL",
    "op": "≤",
    "val": 0
  },
  {
    "binder": "FYNRTAFQLPGDARV",
    "op": "≤",
    "val": 0
  },
  {
    "binder": "NRPAIRIPSLKKPAL",
    "op": "=",
    "val": 135
  },
  {
    "binder": "PPPPPPPPPPPLPQS",
    "op": "=",
    "val": 12.5
  },
  {
    "binder": "RKNRAPPQRPRFNRD",
    "op": "=",
    "val": 917
  },
  {
    "binder": "AATTSTPPLPRRRAT",
    "op": "=",
    "val": 16
  },
  {
    "binder": "PPLPRAPPVPPATFE",
    "op": "=",
    "val": 7
  },
  {
    "binder": "VLRFLGFPLPIFEKG",
    "op": "=",
    "val": 1
  },
  {
    "binder": "RRASLFPRDPKRLRP",
    "op": "=",
    "val": 152
  },
  {
    "binder": "NNNKMRPHLPPLSSG",
    "op": "=",
    "val": 323
  },
  {
    "binder": "RVRKTHVPASKRPSG",
    "op": "=",
    "val": 249
  },
  {
    "binder": "RMVRRRPLRVQFSAR",
    "op": "=",
    "val": 558
  },
  {
    "binder": "RRSKSLPITPKSIFN",
    "op": "=",
    "val": 205
  },
  {
    "binder": "ATKSASPTLPTRRSR",
    "op": "=",
    "val": 356
  },
  {
    "binder": "HKVLRPFLLRRLKKD",
    "op": "=",
    "val": 250
  }
]
